Values compiled from patent US11827701B2.

# test.target: T1, cynomolgus monkey IL-6 (Macaca fascicularis, UniProt P79341)
# T1 construct: His
# T1 sequence (P79341 28-212): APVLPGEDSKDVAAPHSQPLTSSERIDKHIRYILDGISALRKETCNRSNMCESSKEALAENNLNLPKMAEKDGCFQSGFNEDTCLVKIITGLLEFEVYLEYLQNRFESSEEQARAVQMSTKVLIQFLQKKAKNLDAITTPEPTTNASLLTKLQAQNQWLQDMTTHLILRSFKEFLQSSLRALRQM
# procedure.summary: Surface plasmon resonance (Biacore), cynomolgus monkey IL-6
# Assay type: binding
# experimental.context: cy/cyno; periplasmic fractions, 29B11 chain shuffled
# Experimental: VL chain shuffling was used to improve the affinity of the Fabs 17F10, 18C7, 18C9, 18C11, 20A4, 29B11, 16D2 and 28A6. In this method, the heavy chain of these clones (as a VHCH1 fragment) was reintroduced into the primary phagemid-light chain library (see Example 1). […] The binding kinetics of chain shuffled Fabs were evaluated by surface plasmon resonance (Biacore) using both bacterially and eukaryotically produced human IL-6, and cynomolgus monkey IL-6 (Tables 5-7). […]
Label 1 when kd >= 0.0004 s⁻¹; otherwise 0.

[Q] API: above_or_equal(metric=kd, cutoff=0.0004 s⁻¹) for item 29B11: antagonistic IL-6-specific Fab clone from immunized llama (antibody, listed as Lama glama, V domains shown) VH: EVQLVESGGGLVQPGGSLRLSCAASGFTFSSYAMSWVRQAPGKGLEWVSRISSGGISTYYADSVKGRFTISRDNAKNTLYLQMNSLKPEDTAVYYCVRYAWGVQWAFDFWGQGTQVTVSS VL: QSVLTQPPSVSGSPGQTVTISCAGTSEDVGYGNYVSWYQQLPGMAPKLLIYDVNKRASGIADRFSGSKSGNTASLTISGLQSEDEADYYCASYRRTIDNIFGGGTHLTVLG
[A] 1

[Q] And the next one, 47C2 (R4): 29B11 chain shuffled Fab, periplasmic fraction (antibody, listed as Lama glama, V domains shown) VH: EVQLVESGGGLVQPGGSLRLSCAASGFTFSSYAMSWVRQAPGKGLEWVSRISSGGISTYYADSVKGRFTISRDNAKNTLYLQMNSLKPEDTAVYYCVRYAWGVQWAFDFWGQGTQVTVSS VL: ALSYDLTQPPSVSGSPGKTVTISCAGTSSDVGYGNYVSWYQQLPGMAPKILIYDVNKRASGIADRFSGSKSGNTASLTISGLQSEDEADYYCASYRRGETIVFGGGTHLTVLG ?
[A] 1

[Q] And the next one, 55E2b: 29B11 chain shuffled Fab, periplasmic fraction (antibody, V domains shown) VH: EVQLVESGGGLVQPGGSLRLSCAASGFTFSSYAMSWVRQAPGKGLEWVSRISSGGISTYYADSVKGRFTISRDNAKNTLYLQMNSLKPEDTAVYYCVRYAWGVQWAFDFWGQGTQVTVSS VL: AQSVLTQPPSVSGSPGKTVTISCAGTSSDVGYGNYVSWYQQLPGMAPKLLIYDVNKRASGIADRFSGSKFANTASLTISGLQSEDEADYYCASYKRGDNAVFGGGTKLTVLG ?
[A] 0

[Q] And the next one, 55H1c: 29B11 chain shuffled Fab, periplasmic fraction (antibody, V domains shown) VH: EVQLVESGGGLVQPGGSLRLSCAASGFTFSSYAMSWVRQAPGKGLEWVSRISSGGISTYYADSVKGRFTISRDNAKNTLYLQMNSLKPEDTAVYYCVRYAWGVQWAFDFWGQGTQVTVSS VL: AQSVVTQPPSVSGSPGKTVTISCAGTSSDVGYGNYVSWYQQLPGMAPKLLIYDVSKRASGIADRFSGSKSGNTASLTISGLQSEDEADYVCASYRRGGTAVFGGGTHLTVLG ?
[A] 1

[Q] And the next one, 55C1a: 29B11 chain shuffled Fab, periplasmic fraction (antibody, V domains shown) VH: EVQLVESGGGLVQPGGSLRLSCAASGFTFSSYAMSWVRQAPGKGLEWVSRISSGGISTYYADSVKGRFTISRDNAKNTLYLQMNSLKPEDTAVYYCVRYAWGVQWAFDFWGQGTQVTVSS VL: ALNFMLTQPPSVSGSPGKTVTISCAGTSSDVGYGNYVSWYQQLPGTAPKLLIYNVNKRASGITDRFSGSKSGNTASLTISGLQSEDEADYYCASYRTGDNAAFGGGTKLTVLG ?
[A] 0

[Q] And the next one, 48C10: 29B11 chain shuffled Fab, periplasmic fraction (antibody, listed as Lama glama, V domains shown) VH: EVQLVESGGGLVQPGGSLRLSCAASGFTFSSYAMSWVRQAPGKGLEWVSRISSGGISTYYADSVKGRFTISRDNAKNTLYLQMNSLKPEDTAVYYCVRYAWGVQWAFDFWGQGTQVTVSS VL: AQSVLTQPPSVSGSPGQTVTISCAGTSEDVGYGNYVSWYQQLPGMAPKLLIYDVNKRASGIADRFSGSKSGNTASLTISGLQSEDEADYYCASYRRTIDNIFGGGTHLTVLG ?
[A] 1
